- study.system: UniProt Q14164
- assay: TR-FRET kinase assay, IKKε
- Assay type: biochemical
- reported.conditions: full length recombinant IKKε 0.3 nM, 2x Km ATP, 1 μM peptide, 240 min at 25° C.; geometric mean of minimum four determinations
pIC50: −log10 of the molar value.
readout.label: pIC50

As a guide, the following entries are already answered.
N#Cc1cc(-c2ncnc3[nH]c(-c4ccc(C5CCN(CC(F)F)CC5)cc4)nc23)ccc1OC1CCN(C(=O)CO)CC1 [Example 255]	8.46
CN(C)C(=O)/C=C/c1cc2c(-c3ccc(OC4CCOCC4)c(C#N)c3)ccnc2[nH]1 [Example 179]	7.16
N#Cc1cc(-c2ncnc3[nH]c(-c4ccc(=O)[nH]c4)cc23)ccc1OC1CCOCC1 [Example 183]	7.46

P = CS(=O)(=O)N1CCC(Oc2ccc(-c3ncnc4[nH]c(-c5ccc(N6CCOCC6)cc5)nc34)cc2C#N)CC1 [Example 253]
Q = CC(C)(C)OC(=O)N1CC=C(c2cc3c(-c4ccc(OC5CCOCC5)c(C#N)c4)ccnc3[nH]2)C1 [Example 36]
R = N#Cc1cc(-c2ncnc3[nH]c(-c4ccc(Cl)cc4)cc23)ccc1OC1CCN(C(=O)CO)CC1 [Example 127]
S = N#Cc1cc(-c2ncnc3[nH]c(-c4ccc(OCCN5CCCC5)cc4)cc23)ccc1OC1CCN(C(=O)CO)CC1 [Example 229]
Qu. Let's sort these by pIC50, smallest first. Go ahead? Provide the ranking by listing each label in its place in the requested order.
Ans. Q, P, R, S
(Q: 7.10, P: 7.40, R: 8.02, S: 9.07)

* * *

- study.system: IKKε (Homo sapiens (Human))
- assay: TR-FRET kinase assay, IKKε
- reported.conditions: full length recombinant IKKε 0.3 nM, 2x Km ATP, 1 μM peptide, 240 min at 25° C.; geometric mean of minimum four determinations
readout.label: IC50 (nM)

Check out these entries, answers already filled in.
N#Cc1cc(-c2ncnc3[nH]c(-c4ccc(N5CCOCC5)c(F)c4)nc23)ccc1OC1CCN(C(=O)CO)CC1	2.64
N#Cc1cc(-c2ncnc3[nH]c(-c4ccc(C5CCN(CC(F)F)CC5)cc4)nc23)ccc1OC1CCN(C=O)CC1	12.9
CN1CCN(c2ccc(-c3nc4c(-c5ccc(OC6CCOCC6)c(C#N)c5)ncnc4[nH]3)cc2)CC1	1.08

I = CC(C)(O)c1ccc(-c2cc3c(-c4ccc(OC5CCOCC5)c(C#N)c4)ncnc3[nH]2)cn1
II = COc1cc(-c2cc3c(-c4ccc(OC5CCNCC5)c(C#N)c4)ncnc3[nH]2)ccc1N1CCOCC1
III = N#Cc1cc(-c2ccnc3[nH]c(-c4ccc(N5CCOCC5)cc4)cc23)ccc1OC1CCOCC1
IV = N#Cc1cc(-c2ncnc3[nH]c(-c4ccc(OCCN5CCCC5)cc4)nc23)ccc1OC1CCN(C(=O)CO)CC1
Qu. With regard to IC50, arrange the entries in ascending order, please. List the labels in the requested order.
Ans. IV, III, I, II
(IV: 2.04 nM, III: 11.5 nM, I: 17.4 nM, II: 115 nM)

* * *

- study.system: TBK1 (Homo sapiens (Human), UniProt Q9UHD2)
- Sequence (Q9UHD2 whole entry): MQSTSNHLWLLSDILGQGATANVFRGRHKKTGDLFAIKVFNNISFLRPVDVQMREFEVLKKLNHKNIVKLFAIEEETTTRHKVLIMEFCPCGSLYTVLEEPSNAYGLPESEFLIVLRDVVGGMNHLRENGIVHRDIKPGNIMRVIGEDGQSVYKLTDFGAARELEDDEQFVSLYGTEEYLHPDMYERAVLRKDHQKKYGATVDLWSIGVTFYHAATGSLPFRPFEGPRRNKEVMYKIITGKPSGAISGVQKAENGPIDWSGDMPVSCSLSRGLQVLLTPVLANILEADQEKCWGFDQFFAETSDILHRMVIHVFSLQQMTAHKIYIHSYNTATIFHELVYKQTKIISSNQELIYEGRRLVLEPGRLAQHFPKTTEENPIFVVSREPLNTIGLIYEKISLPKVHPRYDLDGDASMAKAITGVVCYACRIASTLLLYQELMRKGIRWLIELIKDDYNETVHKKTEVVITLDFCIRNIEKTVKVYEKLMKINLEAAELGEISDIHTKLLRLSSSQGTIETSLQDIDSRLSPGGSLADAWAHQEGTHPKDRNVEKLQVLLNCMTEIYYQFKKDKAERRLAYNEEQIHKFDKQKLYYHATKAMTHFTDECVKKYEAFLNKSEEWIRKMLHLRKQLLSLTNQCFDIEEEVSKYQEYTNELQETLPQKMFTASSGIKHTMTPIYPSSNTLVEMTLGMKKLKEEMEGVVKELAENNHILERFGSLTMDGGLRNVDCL
- assay: TR-FRET kinase assay, TBK1
- reported.conditions: read-out: TBK1-IC50; full length recombinant TBK1 2.5 nM, 2x Km ATP, 1 μM peptide, 240 min at 25° C.; geometric mean of minimum four determinations
readout.label: IC50 (nM)

Take a look at these entries with their results.
CS(=O)(=O)N1CCC(Oc2ccc(-c3ncnc4[nH]c(-c5ccc(N6CCOCC6)cc5)nc34)cc2C#N)CC1	19.8
N#Cc1cc(-c2ncnc3[nH]c(-c4ccc(C5CCN(CC(F)(F)F)CC5)cc4)nc23)ccc1OC1CCN(C(=O)CO)CC1	3.8

a = CC(C)(O)c1ccc(-c2cc3c(-c4ccc(CN5CCOCC5)c(C#N)c4)ncnc3[nH]2)cc1
b = N#Cc1nc(-c2ccnc3[nH]c(-c4ccc(N5CCOCC5)cc4)cc23)ccc1OC1CCOCC1
Qu. Consider a and b . Which of these has its IC50 at a higher number? Reply briefly: the label of your chosen item.
Ans. a
(a: 36.9 nM, b: 3.89 nM)

I = N#Cc1cc(-c2ncnc3[nH]c(-c4ccc(CN5CCOCC5)cc4)nc23)ccc1OC1CCOCC1
II = N#Cc1cc(-c2ccnc3[nH]c(-c4ccc(N5CCOCC5)cc4)cc23)ccc1F
Qu. Please state the entry with greater IC50 among I and II . Kindly give the label for the entry you pick.
Ans. II
(II: 6.06 nM, I: 3.34 nM)

* * *

- study.system: IKKε (Homo sapiens (Human), UniProt Q14164)
- Sequence (Q14164 whole entry): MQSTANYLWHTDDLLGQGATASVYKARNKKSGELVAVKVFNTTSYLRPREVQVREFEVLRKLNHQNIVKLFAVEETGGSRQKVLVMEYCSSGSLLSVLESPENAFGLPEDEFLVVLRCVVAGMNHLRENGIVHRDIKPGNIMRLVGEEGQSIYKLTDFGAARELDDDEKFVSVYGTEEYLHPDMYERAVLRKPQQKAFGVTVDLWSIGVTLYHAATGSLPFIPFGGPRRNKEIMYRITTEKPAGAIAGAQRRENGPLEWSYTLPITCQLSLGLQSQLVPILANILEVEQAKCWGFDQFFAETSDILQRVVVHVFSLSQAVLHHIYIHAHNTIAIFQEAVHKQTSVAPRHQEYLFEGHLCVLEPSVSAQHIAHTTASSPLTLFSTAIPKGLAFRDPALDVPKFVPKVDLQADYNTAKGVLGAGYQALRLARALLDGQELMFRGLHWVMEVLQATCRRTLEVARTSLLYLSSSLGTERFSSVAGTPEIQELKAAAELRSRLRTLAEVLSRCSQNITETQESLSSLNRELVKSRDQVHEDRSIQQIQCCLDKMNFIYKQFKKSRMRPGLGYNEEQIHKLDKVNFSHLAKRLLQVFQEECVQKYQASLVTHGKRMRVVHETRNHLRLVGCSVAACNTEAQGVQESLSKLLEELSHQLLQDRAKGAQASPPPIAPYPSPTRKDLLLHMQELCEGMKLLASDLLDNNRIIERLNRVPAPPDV
- assay: TR-FRET kinase assay, IKKε
- reported.conditions: full length recombinant IKKε 0.3 nM, 2x Km ATP, 1 μM peptide, 240 min at 25° C.; geometric mean of minimum four determinations
pIC50: −log10 of the molar value.
readout.label: pIC50

# annotated cases, reported pIC50 shown
CN1CCN(c2ccc(-c3nc4c(-c5ccc(OC6CCN(C=O)CC6)c(C#N)c5)ncnc4[nH]3)cc2)CC1	8.57
CC(C)(O)c1ccc(-c2nc3c(-c4ccc(OC5CCOCC5)c(C#N)c4)ncnc3[nH]2)cc1	7.84
COc1cc(-c2cc3c(-c4ccc(OC5CCOCC5)c(C#N)c4)c(F)cnc3[nH]2)ccc1N1CCOCC1	6.59

I = N#Cc1cc(-c2ncnc3[nH]c(-c4ccc(N5CCN(C6COC6)CC5)cc4)cc23)ccc1OC1CCOCC1
II = N#Cc1cc(-c2ccnc3[nH]c(-c4cccnc4)cc23)ccc1OC1CCOCC1
III = CC(C)(O)c1ccc(-c2cc3c(-c4ccc(CN5CCOCC5)c(C#N)c4)ncnc3[nH]2)cc1
IV = Cc1cc(N2CCOCC2)ccc1-c1cc2c(-c3ccc(OC4CCNCC4)c(C#N)c3)ncnc2[nH]1
V = N#Cc1cc(-c2ncnc3[nH]c(-c4ccc(N5CCOCC5)c(F)c4)nc23)ccc1OC1CCOCC1
Qu. List the 5 entries from lowest pIC50 to highest pIC50 value. I would appreciate it if you listed the labels in the requested order.
Ans. V, III, IV, II, I
(V: 6.00, III: 6.55, IV: 6.99, II: 7.77, I: 8.26)

1 = N#Cc1cc(-c2ncnc3[nH]c(-c4ccc(C(=O)N5CCOCC5)cc4)cc23)ccc1OC1CCOCC1
2 = N#Cc1cc(-c2ncnc3[nH]c(-c4cccc(N5CCOCC5)c4)cc23)ccc1OC1CCOCC1
Qu. Which item exceeds the other in pIC50, 1 or 2 ? Kindly give the label for the entry you pick.
Ans. 1
(1: 8.30, 2: 7.72)

P = N#Cc1cc(-c2ccnc3[nH]c(-c4ccc(N5CCOCC5)cc4)cc23)ccc1CN1CCOCC1
Q = CC1(C)C(=O)Nc2cc(-c3cc4c(-c5ccc(OC6CCOCC6)c(C#N)c5)ncnc4[nH]3)ccc21
Qu. Compare pIC50: is it lower for P or for Q ? Which one? Tell me its label.
Ans. P
(P: 6.88, Q: 8.07)

1 = N#Cc1cc(-c2cc3c(-c4ccc(N5CC(O)C5)c(C#N)c4)ncnc3[nH]2)ccc1N1CC(O)C1
2 = C[C@@H](O)C(=O)N1CC[C@@H](Oc2ccc(-c3ncnc4[nH]c(-c5ccc(N6CCOCC6)cc5)nc34)cc2C#N)C1
Qu. Endpoint returns whichever of 1 and 2 has the numerically higher pIC50. Respond with the label that goes with your answer.
Ans. 2
(2: 7.23, 1: 6.49)

* * *

- study.system: TBK1 (Homo sapiens (Human))
- assay: TR-FRET kinase assay, TBK1
- reported.conditions: read-out: TBK1-IC50; full length recombinant TBK1 2.5 nM, 2x Km ATP, 1 μM peptide, 240 min at 25° C.; geometric mean of minimum four determinations
readout.label: pIC50
pIC50 field: float, defined as -log10 of concentration (mol/L).

CC1CN(c2ccc(-c3nc4c(-c5ccc(OC6CCN(C(=O)CO)CC6)c(C#N)c5)ncnc4[nH]3)cc2)CCN1CCF (stereo not shown)	8.62

As a next step, examine the compound that follows.
Qu. What measured pIC50 goes with N#Cc1cc(-c2ncnc3[nH]c(-c4ccc(N5CCOCC5)cc4)nc23)ccc1OC1CCOCC1 ?
Ans. 8.52

* * *

- study.system: IKKε (Homo sapiens (Human), UniProt Q14164)
- assay: TR-FRET kinase assay, IKKε
- reported.conditions: full length recombinant IKKε 0.3 nM, 2x Km ATP, 1 μM peptide, 240 min at 25° C.; geometric mean of minimum four determinations
pIC50: −log10 of the molar value.
readout.label: pIC50

N#CCC(=O)N1CC[C@@H](Oc2ccc(-c3ncnc4[nH]c(-c5ccc(N6CCOCC6)cc5)cc34)cc2C#N)C1	7.93
N#Cc1cc(-c2ccnc3[nH]c(-c4ccc(N5CCOCC5)cc4)cc23)ccc1O[C@H]1CCNC1	6.88

1 = N#Cc1cc(-c2ncnc3[nH]c(-c4ccc(OCCN5CCCC5)cc4)cc23)ccc1N1CC(O)C1
2 = N#Cc1cc(-c2ncnc3[nH]c(-c4ccc(C(=O)N5CCCC5)cc4)cc23)ccc1OC1CCOCC1
3 = COc1cc(-c2cc3c(-c4ccc(OC5CCNCC5(F)F)c(C#N)c4)ncnc3[nH]2)ccc1N1CCN(C2COC2)CC1 (stereo not drawn)
4 = N#Cc1cc(-c2ncnc3[nH]c(-c4ccc(C(=O)N5CCOCC5)cc4)cc23)ccc1OC1CCN(C(=O)CO)CC1
Qu. Kindly order the items shown according to pIC50, from the highest value down. Sort the labels as requested; that list is your answer.
Ans. 4, 2, 3, 1

Just for reference, patent US10072001B2 is where these values come from.
